- Assay Summary: Negative allosteric modulation activity at human P2X7 receptor expressed in human 1321N1 cells assessed as ATP induced calcium response by measuring ATP EC50 at 100 nM
Assay Endpoint: EC50 (µM)
// note: answer is a bare numeric in µM

Asked: Name the recorded EC50 for `O=C(NC(=S)Nc1cccc2cccnc12)C12CC3CC(CC(C3)C1)C2` .
Given back: 6.08

====

- Assay Summary: Negative allosteric modulation activity at human P2X4 receptor expressed in human 1321N1 cells assessed as ATP induced calcium response by measuring ATP EC50 at 200 nM
Assay Endpoint: pEC50
Please treat pEC50 as minus the base-10 logarithm of the molar concentration.

Asked: Name the recorded pEC50 for `CC(C)c1ccc(NC(=S)NC(=O)C23CC4CC(CC(C4)C2)C3)c(Br)c1` .
Given back: 4.91

====

- Assay Summary: Negative allosteric modulation activity at human P2X7 receptor expressed in human 1321N1 cells assessed as ATP induced calcium response by measuring ATP EC50 at 200 nM
Assay Endpoint: EC50 (nM)
// note: answer is a bare numeric in nM

Asked: Name the recorded EC50 for `O=C(NC(=S)Nc1cccc2cccnc12)C12CC3CC(CC(C3)C1)C2` .
Given back: 2190

Where do these numbers come from? They come from BindingDB's records for PubMed 35123298.
